# Condition summary: 25 °C
I'd be grateful if you could share measured solubility for these entries.
Reply numerically in mM, unit not repeated.

Q. Can you look up the measured solubility of `CSc1ncccn1` for me?
A. 396

Q. Entry to check: `CC(=O)OC[C@@H](O)[C@@H](OC(C)=O)[C@H](OC(C)=O)[C@H](C=O)OC(C)=O`
A. 44.2

Q. Entry to check: `CCCCCCCCNC(=O)c1cccnc1`
A. 0.982

Q. Entry to check: `Cc1ccccc1OCC(=O)O`
A. 3.61

Q. Entry to check: `Cc1cccc(CO)c1`
A. 409

Q. Entry to check: `ON=C1CCCCCCCCC1=NO`
A. 2.62

Q. Entry to check: `CCC(CC)(C(=O)O)C(CC)(CC)C(=O)O`
A. 1.09

Q. Entry to check: CCCCOC(=O)C(C)OC(C)=O (centres undefined)
A. 176

Q. Entry to check: CCC1(c2ccccc2)NC(=O)NC1=O (centres undefined)
A. 6.76

Q. Entry to check: `O=[N+]([O-])c1ccc(O)c([N+](=O)[O-])c1-c1ccccc1`
A. 0.192

Q. Entry to check: `CC1(C)OC(=O)c2ccccc21`
A. 13.5

Q. Entry to check: `O=C(O)c1cc(N=Nc2ccccc2)ccc1O`
A. 0.879

Q. Entry to check: `Nc1ccc2c(c1)C(=O)OC2`
A. 9.09

Q. Entry to check: `O=C(CCl)NC(=O)CCl`
A. 5.88
